tested on: A549 NSCLC; assay: NCI tumour cell line growth inhibition, 48 h
Field: TGI. Provide a value for each of the molecules that follow.

Respond only with TGI recorded for COc1cc2c(ccc3c4cc(OC)c(OC)cc4c[n+](C)c23)cc1O
> 75 µM

# return TGI for each item in the list
1. CCCCC[C@H]1C/C=C2/C(=O)C=C[C@@H]2C/C=C\CCCC(=O)O[C@@H](CCCCC)C/C=C2/C(=O)C=C[C@@H]2C/C=C\CCCC(=O)O1
2. OCC(O)C(Cl)CCl (centres undefined)
3. CCn1c(SCC(=O)NNC(=S)Nc2ccc([N+](=O)[O-])cc2)nc2ccccc2c1=O

["1.35 µM", "> 100 µM", "> 100 µM"]

* * *

tested on: PC-3 prostate; assay: NCI tumour cell line growth inhibition, 48 h
readout name: TGI

// fetch TGI for COc1ccc(/C=C/C(=O)c2ccc(O)c(CN3CCN(c4cc5c(cc4F)c(=O)c(C(=O)O)cn5C4CC4)CC3)c2)cc1 ; system: PC-3 prostate
> 100 µM

// fetch TGI for CC(=O)OCC1OC(c2nc3ccccc3s2)=CC(OC(C)=O)C1OC(C)=O (stereo not drawn) ; system: PC-3 prostate
> 100 µM

Continue with the compound presented below.
// fetch TGI for Cc1nn(-c2ccccc2)c(C)c1/C=N/N=C1\SCC(=O)N1c1ccccc1 ; system: PC-3 prostate
51.5 µM

* * *

tested on: DU-145 prostate; test: NCI tumour cell line growth inhibition, 48 h
Field: GI50. Provide a value for each of the compounds that follow.

Some compounds with known GI50 results, for comparison:
Respond only with GI50 recorded for O=c1ccn(C2CC(O)C(CO)O2)c(=O)[nH]1 (stereo not drawn)
> 5000 µM

Respond only with GI50 recorded for O=C(Cn1c(=O)c(-c2ccccc2)nc2ccccc21)Nc1ccc(F)cc1
43.4 µM

***
Respond only with GI50 recorded for Cc1cc(Cl)ccc1Nc1nc(C(F)(F)F)ccc1C(=O)N/N=C/c1ccc(Cl)cc1
2.56 µM

* * *

system: SR leukemia; assay: NCI tumour cell line growth inhibition, 48 h; in the data active = GI50 below about 0.43 µM; inactive = the rest
# output must be one of active, inactive

Reference set (5 entries):
Tell me the recorded outcome of this test for COc1cc2c3c(n(CCCCN)c(=O)c2cc1OC)-c1cc2c(cc1C3=O)OCO2 .
active

Tell me the recorded outcome of this test for CNC(=O)c1cccc2cc(Oc3ccnc4cc(OCC5(N)CC5)c(OC)cc34)ccc12 .
inactive

Tell me the recorded outcome of this test for Cc1cc(O)c(C2=NN(c3ccc(S(N)(=O)=O)cc3)C(c3ccccc3Cl)C2)cc1Cl (stereo not given) .
inactive

Tell me the recorded outcome of this test for CCCCCCCCC/C=C/C=C/C(=O)NCC(=O)NC1C(O)C(O)C(Nc2ncnc3nc[nH]c23)OC1C(O)CO (stereo not given) .
inactive

Tell me the recorded outcome of this test for NC(=O)c1c(NC(=O)c2ccccn2)sc2c1CCC(=O)C2 .
inactive

***
Tell me the recorded outcome of this test for Cc1cc(NCCN(C(C)C)C(C)C)nc(/N=C(\N)Nc2ccc(Cl)c(C(F)(F)F)c2)n1 .
active

Tell me the recorded outcome of this test for COc1cccc2c1ccc1nc3cccc(C(=O)N[C@H](C)CN(C)C)c3nc12 .
active

Tell me the recorded outcome of this test for COc1cccc(-c2nn(-c3ccccc3)cc2-c2ccnc(NCCCNC(=O)Nc3ccc(Cl)c(Cl)c3)c2)c1 .
inactive

Tell me the recorded outcome of this test for O=c1cc(-c2ccccc2F)[nH]c2ccc(N3CCCC3)cc12 .
active

Tell me the recorded outcome of this test for CCn1cnc(C[C@H](NC(=O)[C@@H](NC(=O)Nc2cc(C(F)(F)F)cc(C(F)(F)F)c2)C(C)C)C(=O)OC)c1 .
inactive

Cited source: PubChem BioAssay (NCI)
